Test: pH (paper) of [^18F]PI-2620 radiopharmaceutical composition over time at 40° C.
Format: physicochemical
Details: 10% ethanol, water for injection, 50 mg/mL vitamin, 6 hr
Overview of reported PH (paper) across a group of compounds:

{"Compound": "C/C1=C2/[N-][C@H]([C@H](CC(N)=O)[C@@]2(C)CCC(=O)NC[C@H](C)OP(=O)([O-])O[C@H]2[C@@H](O)[C@@H](n3cnc4cc(C)c(C)cc43)O[C@@H]2CO)[C@]2(C)N=C(/C(C)=C3N=C(/C=C4N=C1[C@@H](CCC(N)=O)C\\4(C)C)[C@@H](CCC(N)=O)[C@]\\3(C)CC(N)=O)[C@@H](CCC(N)=O)[C@]2(C)CC(N)=O.[Co+2] (stereo in doubt) [VB12, cobalamin]", "PH (paper)": 6.5}
{"Compound": "Nc1ccc(C(=O)O)cc1 [VB10, 4-aminobenzoic acid]", "PH (paper)": 7}
{"Compound": "Cc1ncc(C[n+]2csc(CCO)c2C)c(N)n1 [VB1, thiamine]", "PH (paper)": 7}
{"Compound": "Nc1ncnc2c1ncn2[C@@H]1O[C@H](COP(=O)(O)O)[C@@H](O)[C@H]1O [VB8, adenosine phosphate]", "PH (paper)": 6}

* * *

Experiment: pH (paper) of [^18F]PI-2620 radiopharmaceutical composition over time at 40° C.
Type: physicochemical
Conditions: 2 nM phosphate buffer and 10% ethanol, vitamin 50 mg/mL (control: sodium ascorbate), 6 hr
Overview of reported PH (paper) across a group of compounds:

{"Compound": "O=C1O[C@H]([C@@H](O)CO)C([O-])=C1O.[Na+] [Na ascorbate, sodium ascorbate]", "PH (paper)": 6}
{"Compound": "Cc1ncc(C[n+]2csc(CCO)c2C)c(N)n1 [VB1, thiamine]", "PH (paper)": 5.5}
{"Compound": "Nc1ncnc2c1ncn2[C@@H]1O[C@H](COP(=O)(O)O)[C@@H](O)[C@H]1O [VB8, adenosine phosphate]", "PH (paper)": 6}
{"Compound": "Nc1ccc(C(=O)O)cc1 [VB10, 4-aminobenzoic acid]", "PH (paper)": 6}

* * *

Overview of reported PH (paper) across a group of compounds:
Assay: pH (paper) of [^18F]PI-2620 radiopharmaceutical composition over time at 40° C.
Assay type: physicochemical
Conditions: 10% ethanol, water for injection, 50 mg/mL vitamin, 2 hr

{"Compound": "C/C1=C2/[N-][C@H]([C@H](CC(N)=O)[C@@]2(C)CCC(=O)NC[C@H](C)OP(=O)([O-])O[C@H]2[C@@H](O)[C@@H](n3cnc4cc(C)c(C)cc43)O[C@@H]2CO)[C@]2(C)N=C(/C(C)=C3N=C(/C=C4N=C1[C@@H](CCC(N)=O)C\\4(C)C)[C@@H](CCC(N)=O)[C@]\\3(C)CC(N)=O)[C@@H](CCC(N)=O)[C@]2(C)CC(N)=O.[Co+2] (stereo in doubt)", "PH (paper)": 7.5}
{"Compound": "Nc1ccc(C(=O)O)cc1", "PH (paper)": 6}
{"Compound": "Nc1ncnc2c1ncn2[C@@H]1O[C@H](COP(=O)(O)O)[C@@H](O)[C@H]1O [VB8, adenosine phosphate]", "PH (paper)": 6}
{"Compound": "Cc1ncc(C[n+]2csc(CCO)c2C)c(N)n1", "PH (paper)": 7}

* * *

Assay: Radiochemical purity of [^18F]PI-2620 radiopharmaceutical composition over time at 40° C. by HPLC
Assay type: physicochemical
Details: [^18F]PI-2620, 2 nM phosphate buffer and 10% ethanol, vitamin 50 mg/mL (control: sodium ascorbate), 0 hr
Observation type: Purity (radiochemical purity) (%)

{"Compound": "Cc1ncc(C[n+]2csc(CCO)c2C)c(N)n1 [VB1, thiamine]", "Observation type": "Purity (radiochemical purity)", "Value unit": "%", "Measured result": 98.79}
{"Compound": "O=C1O[C@H]([C@@H](O)CO)C([O-])=C1O.[Na+] [Na ascorbate, sodium ascorbate]", "Observation type": "Purity (radiochemical purity)", "Value unit": "%", "Measured result": 99.05}
{"Compound": "Nc1ncnc2c1ncn2[C@@H]1O[C@H](COP(=O)(O)O)[C@@H](O)[C@H]1O [VB8, adenosine phosphate]", "Observation type": "Purity (radiochemical purity)", "Value unit": "%", "Measured result": 98.06}
